The reader will find reported AUC(0-t) values listed item by item below.
Assay: Pharmacokinetic study in rats after oral administration of raw/honey-roasting licorice water decoction (UPLC-MS/MS of plasma)
Assay type: in vivo, Wistar rats
Conditions: male, Wistar, rat, plasma, po, 2.7 g (crude drug)/kg, rat plasma, oral 50% honey-roasting licorice water decoction, 2.7 g (crude drug)/kg, n = 5; read-out: AUC0-24h
Description: Healthy male Wistar rats (weighing 200 ± 20 g) were obtained from the Laboratory Animal Centre of Shanghai Jiao Tong University (Shanghai, China). […] All protocols and procedures were approved by the Shanghai Jiao Tong University Animal Care and Use Committee. […] The pharmacokinetic parameters of the six compounds were calculated by […] […] Statistical analyses of all the data obtained were evaluated using one-way ANOVA (SPSS 17.0).
Give just the number in ng·h/mL; leave the unit off.

Entry O=C(/C=C/c1ccc(O)cc1)c1ccc(O)cc1O [ILG, isoliquiritigenin] has what AUC(0-t)?
6.13

Can you check CC1(C)[C@@H](O)CC[C@]2(C)[C@H]3C(=O)C=C4[C@@H]5C[C@@](C)(C(=O)O)CC[C@]5(C)CC[C@@]4(C)[C@]3(C)CC[C@@H]12 [GA, glycyrrhetinic acid] next?
5180

====

test: Pharmacokinetic study in rats after oral administration of raw/honey-roasting licorice water decoction (UPLC-MS/MS of plasma); format: in vivo, Wistar rats; settings: male, Wistar, rat, plasma, po, 2.7 g (crude drug)/kg, rat plasma, oral raw licorice water decoction, 2.7 g (crude drug)/kg, n = 5; read-out: AUC0-24h
Form field: AUC(0-t) (one value per entry).
Dear colleague, please return just the value in ng·h/mL, with no unit written.

Below, each entry is followed by its recorded AUC(0-t) result.
O=C1C[C@@H](c2ccc(O[C@@H]3O[C@H](CO)[C@@H](O)[C@H](O)[C@H]3O)cc2)Oc2cc(O)ccc21 [LQ, liquiritin]    520
CC1(C)[C@@H](O)CC[C@]2(C)[C@H]3C(=O)C=C4[C@@H]5C[C@@](C)(C(=O)O)CC[C@]5(C)CC[C@@]4(C)[C@]3(C)CC[C@@H]12 [GA, glycyrrhetinic acid]    6980

Please find the next molecule below.
Please look up its AUC(0-t): O=C(/C=C/c1ccc(O)cc1)c1ccc(O)cc1O [ILG, isoliquiritigenin]
6.53
